- assayedSystem: Oxytocin receptor (Rattus norvegicus, UniProt P70536)
- Construct: from tissue; host or cells: rat uterine muscle membrane (diethylstilbestrol-treated)
- Sequence (P70536 whole entry): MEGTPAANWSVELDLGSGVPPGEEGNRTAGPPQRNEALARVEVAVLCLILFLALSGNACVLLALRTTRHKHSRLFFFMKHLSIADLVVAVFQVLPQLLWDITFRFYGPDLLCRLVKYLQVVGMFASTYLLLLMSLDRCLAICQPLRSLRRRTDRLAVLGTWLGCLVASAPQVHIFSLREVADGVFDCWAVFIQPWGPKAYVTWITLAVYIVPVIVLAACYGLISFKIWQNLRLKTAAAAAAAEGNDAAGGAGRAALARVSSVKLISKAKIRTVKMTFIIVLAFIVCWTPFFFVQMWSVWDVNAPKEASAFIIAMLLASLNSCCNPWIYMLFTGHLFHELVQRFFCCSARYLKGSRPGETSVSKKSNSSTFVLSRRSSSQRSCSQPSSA
- assay: Oxytocin receptor binding assay ([3H]-oxytocin, rat uterine muscle membrane)
- conditions: 25° C., one hour, pH 8.0
assayEndpoint: IC50 (µM)
Kindly answer with a numeric value in µM, unit omitted.

Query: // lookup IC50 for O=C(O)CC1CCCN(C(=O)c2ccc(NC(=O)c3ccccc3Br)nc2)c2ccc(Cl)cc21 (stereo not shown)
Reply: 3.5

Query: // lookup IC50 for `O=C(Nc1ccc(C(=O)N2CCCCc3cc(Cl)ccc32)cn1)c1ccccc1Cl`
Reply: 0.307

Query: // lookup IC50 for `O=C1c2ccccc2OCCN1c1ccc(C(=O)N2CCCCc3cc(Cl)ccc32)cn1`
Reply: 0.84

Query: // lookup IC50 for `O=C(Nc1ccc(C(=O)N2CCCCc3cc(Cl)ccc32)cn1)c1ccccc1OCCO`
Reply: 6.6

Query: // lookup IC50 for Cc1ccccc1C(=O)Nc1ccc(C(=O)N2CCCC(OCCN(C)C)c3cc(Cl)ccc32)cn1 (stereo not shown)
Reply: 1.14

Query: // lookup IC50 for `O=C(Nc1ccc(C(=O)N2CCCCc3cc(Cl)ccc32)cn1)C1CCCCC1`
Reply: 0.36

Query: // lookup IC50 for `CN1CCN(C(=O)COc2ccccc2C(=O)Nc2ccc(C(=O)N3CCCCc4cc(Cl)ccc43)cn2)CC1`
Reply: 4.5

Query: // lookup IC50 for O=C(Nc1ccc(C(=O)N2CCCC(O)(CO)c3cc(Cl)ccc32)cn1)c1ccccc1Cl (stereo not shown)
Reply: 1.2

Query: // lookup IC50 for Cc1ccccc1C(=O)Nc1ccc(C(=O)N2CCCC(CC(N)=O)c3cc(Cl)ccc32)cn1 (stereo not shown)
Reply: 0.74

Query: // lookup IC50 for O=C(Nc1ccc(C(=O)N2CCCC(CCN3CCCC3)c3cc(Cl)ccc32)cn1)c1ccccc1Cl (stereo not shown)
Reply: 1.32

The origin of these recorded values is patent US5498609A.
